# Test System: Beta Secretase enzyme (BACE) (Homo sapiens, UniProt P56817)
# Sequence (P56817 46-501): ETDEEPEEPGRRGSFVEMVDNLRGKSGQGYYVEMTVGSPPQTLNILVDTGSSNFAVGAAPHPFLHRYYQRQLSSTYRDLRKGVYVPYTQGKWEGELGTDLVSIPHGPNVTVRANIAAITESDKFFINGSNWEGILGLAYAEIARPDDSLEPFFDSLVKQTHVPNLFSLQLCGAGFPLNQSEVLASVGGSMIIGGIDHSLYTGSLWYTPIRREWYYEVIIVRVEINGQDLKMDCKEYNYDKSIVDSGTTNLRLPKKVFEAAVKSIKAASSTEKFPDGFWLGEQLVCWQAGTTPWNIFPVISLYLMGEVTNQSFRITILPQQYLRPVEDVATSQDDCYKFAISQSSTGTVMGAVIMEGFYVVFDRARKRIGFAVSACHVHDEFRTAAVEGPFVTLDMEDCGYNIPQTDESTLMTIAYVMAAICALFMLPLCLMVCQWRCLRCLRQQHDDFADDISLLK
# Procedure Details: In vitro enzymatic BACE FRET assay
# Assay type: biochemical
# Test Settings: average IC50, in vitro enzymatic BACE FRET assay; read-out: BACE1 FRET assay IC50
pIC50: −log10 of the molar value.
Measured Parameter: pIC50

# example entries with known answers
{"columns": ["Compound", "Measured Parameter", "Number"],
 "data": [
  ["C#CCOc1ccc(C(=O)Nc2ccc3c(c2)[C@@]2(C)N=C(N)C(C)(C)S(=O)(=O)[C@@H]2C[C@H](C)O3)nc1 [Example 145]", "pIC50", 9.00],
  ["Cc1cc(C(F)(F)F)cnc1C(=O)Nc1ccc2c(c1)[C@@]1(C)N=C(N)C(C)(C)S(=O)(=O)[C@@H]1CC(C)(C)O2 [Example 113]", "pIC50", 8.22],
  ["Cc1cc(Cl)cnc1C(=O)Nc1ccc2c(c1)[C@@]1(CF)N=C(N)C(C)(C)S(=O)(=O)[C@@H]1CCO2 [Example 149]", "pIC50", 8.05],
  ["COc1cnc(C(=O)Nc2ccc3c(c2)[C@@]2(C)N=C(N)C(C)(C)S(=O)(=O)[C@@H]2CCS3)cn1 [Example 117]", "pIC50", 7.85],
  ["CC1(C)C(N)=N[C@]2(CF)c3cc(Nc4nccc5cc(Cl)cnc45)ccc3OCC[C@@H]2S1(=O)=O [Example 154]", "pIC50", 8.52]
]}

A. CCCOc1cnc2c(Nc3ccc4c(c3)[C@@]3(C)N=C(N)C(C)(C)S(=O)(=O)[C@@H]3C[C@H](C)O4)nccc2n1 [Example 135]
B. C[C@H]1C[C@@H]2[C@](CF)(N=C(N)C(C)(C)S2(=O)=O)c2cc(Nc3nccc4cc(C#N)cnc34)ccc2O1 [Example 110]
C. Cc1cc(C#N)cnc1C(=O)Nc1ccc2c(c1)[C@@]1(CF)N=C(N)C(C)(C)S(=O)(=O)[C@H]1CCO2 [Example 153]
Ascending sort, pIC50. Submit the labels in the order that the ranking request calls for.
A, B, C

1. C[C@H]1C[C@@H]2[C@](C)(N=C(N)C(C)(C)S2(=O)=O)c2cc(Nc3nccc4nc(OCc5ccn(C)n5)cnc34)ccc2O1 [Example 146]
2. CC1(C)C(N)=N[C@]2(CF)c3cc(NC(=O)c4ccc(OC(F)F)cn4)ccc3OCC[C@@H]2S1(=O)=O [Example 122]
# compare pIC50 for 1 vs 2 ; return the one with the smaller value Could you answer with the label of the item you picked?
2
(2: 7.96, 1: 8.30)

a. CC1(C)C[C@@H]2[C@](C)(N=C(N)C(C)(C)S2(=O)=O)c2cc(NC(=O)c3ncc(C(F)(F)F)cc3Cl)ccc2O1 [Example 127]
b. COc1cnc2c(Nc3ccc4c(c3)[C@@]3(C)N=C(N)C(C)(C)S(=O)(=O)[C@H]3CCO4)nccc2n1 [Example 159]
c. C[C@H]1C[C@@H]2[C@](C)(N=C(N)C(C)(C)S2(=O)=O)c2cc(Nc3ncnc4cc(C(F)(F)F)cnc34)ccc2O1 [Example 133]
Ascending sort, pIC50. Submit the labels in the order that the ranking request calls for.
b, a, c

1. C[C@H]1C[C@@H]2[C@](C)(N=C(N)C(C)(C)S2(=O)=O)c2cc(NC(=O)c3ccc(OCc4ncco4)cn3)ccc2O1 [Example 144]
2. CC#CCOc1cnc(C(=O)Nc2ccc3c(c2)[C@@]2(C)N=C(N)C(C)(C)S(=O)(=O)[C@@H]2CC(C)(C)O3)cn1 [Example 98]
Of 1 and 2 , whose reported pIC50 is the larger number? Could you answer with the label of the item you picked?
2
(2: 8.70, 1: 8.40)

P. Cc1cc(OC(F)F)cnc1C(=O)Nc1ccc2c(c1)[C@@]1(C)N=C(N)C(C)(C)S(=O)(=O)[C@]1(F)CCO2 [Example 95]
Q. C[C@H]1C[C@@H]2[C@](C)(N=C(N)C(C)(C)S2(=O)=O)c2cc(NC(=O)c3ncc(Cl)cc3Cl)ccc2O1 [Example 129]
# compare pIC50 for P vs Q ; return the one with the smaller value Could you answer with the label of the item you picked?
P

P. CC1(C)C[C@@H]2[C@](C)(N=C(N)C(C)(C)S2(=O)=O)c2cc(Nc3ncnc4cc(C(F)(F)F)cnc34)ccc2O1 [Example 106]
Q. CC1(C)C(N)=N[C@]2(C)c3cc(NC(=O)c4cnc(OCC5CC5)cn4)ccc3OCC[C@H]2S1(=O)=O [Example 88]
Of P and Q , whose reported pIC50 is the larger number? Could you answer with the label of the item you picked?
Q
(Q: 8.00, P: 7.77)

Measured values drawn from patent US9309263B2 for this set.
